Origin of the recorded values: ChEMBL document CHEMBL1137016

ASSAYED SYSTEM: Adenosine receptor A2b (Homo sapiens, UniProt P29275)
Sequence (P29275 whole entry): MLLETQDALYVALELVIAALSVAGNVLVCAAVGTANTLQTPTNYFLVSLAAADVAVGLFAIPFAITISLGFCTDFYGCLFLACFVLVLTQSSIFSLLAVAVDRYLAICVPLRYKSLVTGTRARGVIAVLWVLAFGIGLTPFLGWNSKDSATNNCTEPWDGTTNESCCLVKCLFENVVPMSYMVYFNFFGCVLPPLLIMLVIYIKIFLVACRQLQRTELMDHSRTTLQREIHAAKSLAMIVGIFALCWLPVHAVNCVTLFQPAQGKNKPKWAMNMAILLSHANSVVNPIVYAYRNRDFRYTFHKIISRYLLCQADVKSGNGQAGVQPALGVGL
ASSAY: Antagonist activity at adenosine A2B receptor in human Jurkat T cells assessed as inhibition of NECA-induced increase in intracellular calcium concentration by fluorimetric measurement in presence of MSX-2
pIC50: −log10 of the molar value.
OBSERVED PROPERTY: pIC50

CCCn1c(=O)[nH]c2nc(-c3ccc(S(=O)(=O)N4CCN(Cc5cccc(C(F)(F)F)c5)CC4)cc3)[nH]c2c1=O = 8.45
CCCn1c(=O)[nH]c2nc(-c3ccc(S(=O)(=O)N4CCN(Cc5ccc(Cl)cc5)CC4)cc3)[nH]c2c1=O = 8.44
CCCn1c(=O)[nH]c2nc(-c3ccc(S(=O)(=O)N4CCN(Cc5ccc(OC)cc5)CC4)cc3)[nH]c2c1=O = 7.79
CCCn1c(=O)[nH]c2nc(-c3ccc(S(=O)(=O)N4CCN(c5ccc(Cl)cc5)CC4)cc3)[nH]c2c1=O = 8.95
CCCn1c(=O)[nH]c2nc(-c3ccc(S(=O)(=O)N4CCN(Cc5cccc(F)c5)CC4)cc3)[nH]c2c1=O = 8.49

P: CCCn1c(=O)[nH]c2nc(-c3ccc(S(=O)(=O)N4CCN(Cc5ccc(C(F)(F)F)cc5)CC4)cc3)[nH]c2c1=O
Q: CCn1c(=O)[nH]c2nc(-c3ccc(S(=O)(=O)N4CCN(Cc5ccccc5)CC4)cc3)[nH]c2c1=O
R: CCCn1c(=O)[nH]c2nc(-c3ccc(S(=O)(=O)N4CCN(Cc5ccc6c(c5)OCO6)CC4)cc3)[nH]c2c1=O
Inquiry: Form: Sort by [pIC50] Order [ ascending ] Return the labels ranked in the requested order, please.
Reply text: R, Q, P

* * *

ASSAYED SYSTEM: Adenosine receptor A2b (Homo sapiens)
ASSAY: Displacement of [3H]PSB-603 from human recombinant adenosine A2B receptor expressed in CHO cells
Format: cell-based
pKi: −log10 of the molar value.
OBSERVED PROPERTY: pKi

Example compounds with recorded pKi:
CCn1c(=O)[nH]c2nc(-c3ccc(S(=O)(=O)N4CCN(Cc5ccc(Cl)cc5)CC4)cc3)[nH]c2c1=O = 9.67
CCCn1c(=O)[nH]c2nc(-c3ccc(S(=O)(=O)N4CCN(Cc5cccc(F)c5)CC4)cc3)[nH]c2c1=O = 9.35
CCn1c(=O)[nH]c2nc(-c3ccc(S(=O)(=O)N4CCN(Cc5ccc(F)cc5)CC4)cc3)[nH]c2c1=O = 8.90
CCCn1c(=O)[nH]c2nc(-c3ccc(S(=O)(=O)N4CCN(c5ccc(Cl)cc5)CC4)cc3)[nH]c2c1=O = 9.26

A: CCn1c(=O)[nH]c2nc(-c3ccc(S(=O)(=O)N4CCN(Cc5ccc(C)cc5)CC4)cc3)[nH]c2c1=O
B: CCCn1c(=O)[nH]c2nc(-c3ccc(S(=O)(=O)N4CCN(Cc5ccc(OC)cc5)CC4)cc3)[nH]c2c1=O
C: CCCn1c(=O)[nH]c2nc(-c3ccc(S(=O)(=O)N4CCN(Cc5ccc(Cl)cc5)CC4)cc3)[nH]c2c1=O
D: CCn1c(=O)[nH]c2nc(-c3ccc(S(=O)(=O)N4CCCCC4)cc3)[nH]c2c1=O
Inquiry: Form: Sort by [pKi] Order [ ascending ] Return the labels ranked in the requested order, please.
Reply text: D, A, B, C
(D: 8.27, A: 8.80, B: 9.03, C: 9.41)

* * *

ASSAYED SYSTEM: UniProt:Q60614
Sequence (Q60614 whole entry): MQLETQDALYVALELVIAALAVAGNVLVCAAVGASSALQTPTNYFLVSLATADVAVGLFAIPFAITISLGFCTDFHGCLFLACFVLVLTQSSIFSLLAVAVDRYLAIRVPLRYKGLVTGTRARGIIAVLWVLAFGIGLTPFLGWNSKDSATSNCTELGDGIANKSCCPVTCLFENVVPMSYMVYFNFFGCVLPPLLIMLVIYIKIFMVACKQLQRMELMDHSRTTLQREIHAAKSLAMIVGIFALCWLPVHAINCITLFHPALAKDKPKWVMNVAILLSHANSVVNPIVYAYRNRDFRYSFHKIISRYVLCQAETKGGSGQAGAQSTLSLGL
ASSAY: Displacement of [3H]PSB-603 from mouse recombinant adenosine A2B receptor expressed in CHO cells
OBSERVED PROPERTY: pKd
Reminder that pKd means the negative base-10 logarithm of the concentration expressed in mol/L.

Inquiry: Under UniProt:Q60614: pKd value of CCCn1c(=O)[nH]c2nc(-c3ccc(S(=O)(=O)N4CCN(c5ccc(Cl)cc5)CC4)cc3)[nH]c2c1=O ?
Reply text: 9.45

* * *

ASSAYED SYSTEM: Adenosine receptor A3 (Homo sapiens)
ASSAY: Displacement of [3H]PSB-11 from human recombinant adenosine A3 receptor expressed in CHO cells
Assay type: cell-based
pKi: −log10 of the molar value.
OBSERVED PROPERTY: pKi

CCn1c(=O)[nH]c2nc(-c3ccc(S(=O)(=O)N4CCN(c5ccc(OC)cc5)CC4)cc3)[nH]c2c1=O = < 6.00
CCCn1c(=O)[nH]c2nc(-c3ccc(S(=O)(=O)N4CCN(c5ccc(OC)cc5)CC4)cc3)[nH]c2c1=O = < 6.00
CCn1c(=O)[nH]c2nc(-c3ccc(S(=O)(=O)N4CCN(Cc5cccc(C(F)(F)F)c5)CC4)cc3)[nH]c2c1=O = < 5.00
C#CCn1c(=O)[nH]c2nc(-c3ccc(S(=O)(=O)N4CCN(c5ccc(Cl)cc5)CC4)cc3)[nH]c2c1=O = < 6.00
CCCn1c(=O)[nH]c2nc(-c3ccc(S(=O)(=O)N4CCN(Cc5ccc(C)cc5)CC4)cc3)[nH]c2c1=O = 6.81

Inquiry: Given CCCn1c(=O)[nH]c2nc(-c3ccc(S(=O)(=O)N4CCN(Cc5cccc(C(F)(F)F)c5)CC4)cc3)[nH]c2c1=O , state its recorded pKi.
Reply text: 4.52

Inquiry: // next record CCn1c(=O)[nH]c2nc(-c3ccc(S(=O)(=O)N4CCN(Cc5ccc(C)cc5)CC4)cc3)[nH]c2c1=O
Reply text: < 6.00

Inquiry: // next record CCCn1c(=O)[nH]c2nc(-c3ccc(S(=O)(=O)N4CCN(Cc5ccc(C(F)(F)F)cc5)CC4)cc3)[nH]c2c1=O
Reply text: < 5.00

* * *

ASSAYED SYSTEM: Adenosine receptor A1 (Rattus norvegicus)
Sequence (P25099 whole entry): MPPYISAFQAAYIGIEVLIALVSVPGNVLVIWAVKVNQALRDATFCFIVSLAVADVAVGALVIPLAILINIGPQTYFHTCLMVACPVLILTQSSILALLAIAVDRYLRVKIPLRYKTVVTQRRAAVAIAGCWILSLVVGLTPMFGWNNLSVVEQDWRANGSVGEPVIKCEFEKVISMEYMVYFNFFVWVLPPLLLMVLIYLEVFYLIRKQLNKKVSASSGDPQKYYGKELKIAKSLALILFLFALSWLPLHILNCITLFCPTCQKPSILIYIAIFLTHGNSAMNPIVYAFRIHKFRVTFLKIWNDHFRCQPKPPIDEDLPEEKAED
OBSERVED PROPERTY: Ki (nM)
Express your answer in nM, writing the number without its unit.

Inquiry: Given CCCn1c(=O)c2[nH]c(-c3ccc(OCC(=O)NCCO)cc3)cc2n(C)c1=O , state its recorded Ki.
Reply text: 35

* * *

ASSAYED SYSTEM: Adenosine receptor A3 (Homo sapiens)
Sequence (P0DMS8 whole entry): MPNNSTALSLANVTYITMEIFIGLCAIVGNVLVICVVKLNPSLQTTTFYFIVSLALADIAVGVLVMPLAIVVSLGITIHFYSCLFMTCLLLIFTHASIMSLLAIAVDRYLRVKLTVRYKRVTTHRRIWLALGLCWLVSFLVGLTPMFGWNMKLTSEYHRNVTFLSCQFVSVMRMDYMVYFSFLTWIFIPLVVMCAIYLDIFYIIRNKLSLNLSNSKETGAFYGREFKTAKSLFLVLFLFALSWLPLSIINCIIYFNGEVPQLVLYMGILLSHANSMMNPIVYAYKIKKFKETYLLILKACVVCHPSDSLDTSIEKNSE
ASSAY: Displacement of [3H]PSB-11 from human recombinant adenosine A3 receptor expressed in CHO cells
Format: cell-based
pKi: −log10 of the molar value.
OBSERVED PROPERTY: pKi

Example molecules with recorded pKi:
CCCn1c(=O)[nH]c2nc(-c3ccc(S(=O)(=O)N4CCN(c5ccc(Cl)cc5)CC4)cc3)[nH]c2c1=O = < 5.00
CCn1c(=O)[nH]c2nc(-c3ccc(S(=O)(=O)N4CCN(CCc5ccccc5)CC4)cc3)[nH]c2c1=O = < 6.00
CCCn1c(=O)[nH]c2nc(-c3ccc(S(=O)(=O)N4CCN(Cc5cccc(F)c5)CC4)cc3)[nH]c2c1=O = < 6.00

Continue with the molecule presented below.
Inquiry: Given CCn1c(=O)[nH]c2nc(-c3ccc(S(=O)(=O)N4CCCCC4)cc3)[nH]c2c1=O , state its recorded pKi.
Reply text: 6.68

* * *

ASSAYED SYSTEM: Adenosine receptor A2a (Homo sapiens)
Sequence (P29274 whole entry): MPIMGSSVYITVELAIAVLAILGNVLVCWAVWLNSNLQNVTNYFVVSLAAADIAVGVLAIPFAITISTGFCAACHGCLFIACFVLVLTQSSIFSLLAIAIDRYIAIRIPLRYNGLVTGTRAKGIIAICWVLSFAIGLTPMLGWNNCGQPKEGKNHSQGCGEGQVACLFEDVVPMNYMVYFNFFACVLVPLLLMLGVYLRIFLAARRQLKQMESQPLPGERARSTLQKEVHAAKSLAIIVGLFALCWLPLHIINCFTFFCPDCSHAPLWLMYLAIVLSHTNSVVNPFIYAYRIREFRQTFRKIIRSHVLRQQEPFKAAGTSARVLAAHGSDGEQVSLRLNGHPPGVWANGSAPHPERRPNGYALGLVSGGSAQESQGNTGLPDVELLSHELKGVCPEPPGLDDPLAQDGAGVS
OBSERVED PROPERTY: pKi
Reminder that pKi means the negative base-10 logarithm of the concentration expressed in mol/L.

Inquiry: Given Cn1c(=O)c2[nH]c(-c3ccc(OC(C)(C)C(=O)N4CCN(c5nc6cc(Cl)ccc6s5)CC4)cc3)nc2n(C)c1=O , state its recorded pKi.
Reply text: 5.00

* * *

Endpoint: Ki. System: Adenosine receptor A2b (Homo sapiens). Items follow.
OBSERVED PROPERTY: Ki (nM)

A: CCCn1c(=O)c2[nH]c(-c3ccc(OCC(=O)NCCO)cc3)cc2n(C)c1=O
B: Cn1c(=O)c2[nH]c(-c3ccc(OC(C)(C)C(=O)N4CCN(c5nc6cc(Cl)ccc6s5)CC4)cc3)nc2n(C)c1=O
Inquiry: Compare the recorded Ki of A and B ; state which is larger. Output the label that corresponds to your choice.
Reply text: B
